Measured growth of individual entries
System: SF-295 CNS
protocolDetails: NCI-60 one-dose screen, 48 h (100 = growth as untreated, 0 = no growth, -100 = all killed)
cond: 10 µM unless noted
This is part of a sample that, as a whole, favours compounds with a hit. Of some 83,000 tested, about 20% had one in any assay.
// units = %; emit number, no label

Consider the following illustrative entries.
>>> observedvalue("C[CH2][Sn]([CH2]C)([CH2]C)[NH]S(=O)(=O)c1ccc(C)cc1")
104
>>> observedvalue("Cc1nnc([S-])s1.[Au+].c1ccc([PH+](c2ccccc2)c2ccccc2)cc1")
75
>>> observedvalue("C=CC(=O)NC(O)C(Cl)(Cl)Cl (stereo unspecified)")
95.6
>>> observedvalue("O=C(O)C1[O][Sb][O]C1C(=O)O (stereo unspecified)")
123

Entry CC1(C)CC(=O)CC(C)(C)N1N=O , growth reported as 111

Entry CCOC(=O)c1cnc(SCc2ccc(Cl)c(Cl)c2)nc1N1CC1 , growth reported as 39.1

The measured values listed here are drawn from PubChem BioAssay (NCI).
